MEASURED_TARGET: feline FcRn complex (FcRn-α subunit and β-microglobulin), biotin labeled (feline)
METHOD: SPR, pH 7.4
pKd: −log10 of the molar value.

- BINDER: "feline IgG1a S252Y/S428M (antibody, part only; not given: Variable domains, not shown: another chain or arm of the molecule) constant: ASTTAPSVFPLAPSCGTTSGATVALACLVLGYFPEPVTVSWNSGALTSGVHTFPAVLQASGLYSLSSMVTVPSSRWLSDTFTCNVAHPPSNTKVDKTVRKTDHPPGPKPCDCPKCPPPEMLGGPSIFIFPPKPKDTLYISRTPEVTCLVVDLGPDDSDVQITWFVDNTQVYTAKTSPREEQFNSTYRVVSVLPILHQDWLKGKEFKCKVNSKSLPSPIERTISKAKGQPHEPQVYVLPPAQEELSRNKVSVTCLIKSFHPPDIAVEWEITGQPEPENNYRTTPPQLDSDGTYFVYSKLSVDRSHWQRGNTYTCSVMHEALHSHHTQKSLTQSPGK"
  pKd: 7.41
